Test system: Mycobacterium tuberculosis Erdman (autoluminescent)
protocol text: GRinf, maximum normalised growth rate inhibition (three-drug combination) (unitless (-1 to 1)); higher = less effect (negative = killing)
particulars: in vitro model: valerate; time point: terminal (~4-5 doublings, model-specific)
observable: GRinf

[
  {
    "compound": "CC(C)/N=c1\\cc2n(-c3ccc(Cl)cc3)c3ccccc3nc-2cc1Nc1ccc(Cl)cc1 [clofazimine] + CC(=O)NC[C@H]1CN(c2ccc(N3CCOCC3)c(F)c2)C(=O)O1 [linezolid] + O=[N+]([O-])c1cn2c(n1)OC[C@@H](OCc1ccc(OC(F)(F)F)cc1)C2 [pretomanid]",
    "meas value": 0.125
  },
  {
    "compound": "CC(C)/N=c1\\cc2n(-c3ccc(Cl)cc3)c3ccccc3nc-2cc1Nc1ccc(Cl)cc1 [clofazimine] + COc1c(N2C[C@@H]3CCCN[C@@H]3C2)c(F)cc2c(=O)c(C(=O)O)cn(C3CC3)c12 [moxifloxacin] + CO[C@H]1/C=C/O[C@@]2(C)Oc3c(C)c(O)c4c(O)c(c(/C=N/N5CCN(C6CCCC6)CC5)c(O)c4c3C2=O)NC(=O)/C(C)=C\\C=C\\[C@H](C)[C@H](O)[C@@H](C)[C@@H](O)[C@@H](C)[C@H](OC(C)=O)[C@@H]1C [rifapentine]",
    "meas value": 0.0037
  },
  {
    "compound": "CC[C@@H](CO)NCCN[C@@H](CC)CO [ethambutol] + NNC(=O)c1ccncc1 [isoniazid] + CO[C@H]1/C=C/O[C@@]2(C)Oc3c(C)c(O)c4c(O)c(c(/C=N/N5CCN(C)CC5)c(O)c4c3C2=O)NC(=O)/C(C)=C\\C=C\\[C@H](C)[C@H](O)[C@@H](C)[C@@H](O)[C@@H](C)[C@H](OC(C)=O)[C@@H]1C [rifampicin]",
    "meas value": 0.0672
  }
]

Values were extracted from the supplement of paper PMC8617591.
